subjectOfTest: Nitric oxide synthase, inducible (Mus musculus)
Sequence (P29477 whole entry): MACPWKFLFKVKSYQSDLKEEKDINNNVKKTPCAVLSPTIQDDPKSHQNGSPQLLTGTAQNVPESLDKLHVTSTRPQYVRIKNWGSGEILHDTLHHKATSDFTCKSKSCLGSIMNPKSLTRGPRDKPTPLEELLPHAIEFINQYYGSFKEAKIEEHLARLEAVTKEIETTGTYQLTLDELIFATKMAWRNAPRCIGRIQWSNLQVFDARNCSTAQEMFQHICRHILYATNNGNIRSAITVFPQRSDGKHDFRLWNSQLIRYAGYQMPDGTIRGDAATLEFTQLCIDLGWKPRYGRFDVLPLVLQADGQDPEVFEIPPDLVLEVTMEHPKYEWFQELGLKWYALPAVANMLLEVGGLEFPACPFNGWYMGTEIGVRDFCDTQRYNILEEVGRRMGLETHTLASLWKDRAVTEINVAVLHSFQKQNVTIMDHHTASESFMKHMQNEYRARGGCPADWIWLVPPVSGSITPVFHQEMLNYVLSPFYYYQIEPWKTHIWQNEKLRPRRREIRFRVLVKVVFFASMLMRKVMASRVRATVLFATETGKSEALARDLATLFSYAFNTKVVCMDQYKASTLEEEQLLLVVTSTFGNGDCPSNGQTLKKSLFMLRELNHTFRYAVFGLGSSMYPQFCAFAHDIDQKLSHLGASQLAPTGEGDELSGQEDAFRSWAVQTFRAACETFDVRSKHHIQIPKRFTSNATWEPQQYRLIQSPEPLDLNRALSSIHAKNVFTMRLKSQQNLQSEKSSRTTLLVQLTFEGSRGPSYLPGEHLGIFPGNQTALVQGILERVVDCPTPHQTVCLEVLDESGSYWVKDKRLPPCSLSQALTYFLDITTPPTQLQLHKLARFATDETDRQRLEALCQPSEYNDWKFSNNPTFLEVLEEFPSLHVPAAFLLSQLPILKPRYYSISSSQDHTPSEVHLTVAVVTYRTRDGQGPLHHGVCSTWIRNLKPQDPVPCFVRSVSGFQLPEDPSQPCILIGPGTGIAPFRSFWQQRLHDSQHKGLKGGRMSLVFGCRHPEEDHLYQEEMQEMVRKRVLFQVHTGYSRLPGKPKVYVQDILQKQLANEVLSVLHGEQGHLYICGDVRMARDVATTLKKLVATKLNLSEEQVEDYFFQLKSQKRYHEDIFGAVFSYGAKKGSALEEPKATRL
Parameters: species or system Escherichia coli

compound	IC50
CC1CCC(NC(=O)N(CCCl)N=O)CC1 (stereo not given) [SEMUSTINE]	Not Active
O=C1C[C@@H]2OCC=C3CN4CC[C@]56c7ccccc7N1[C@H]5[C@H]2[C@H]3C[C@H]46 [STRYCHNINE]	Not Active
O=c1[nH]c(=O)n(C2CCCO2)cc1F (stereo not given) [TEGAFUR]	Not Active
CC(O)(P(=O)(O)O)P(=O)(O)O [ETIDRONIC ACID]	Not Active
CC(=O)OCC(=O)[C@@]12OC(C)(C)O[C@@H]1C[C@H]1[C@@H]3C[C@H](F)C4=CC(=O)C=C[C@]4(C)[C@@]3(F)[C@@H](O)C[C@@]12C [FLUOCINONIDE]	Not Active
O=c1c(-c2ccc(O)cc2)coc2cc(O)cc(O)c12 [GENISTEIN]	Not Active
CN(C)C(=O)Oc1cccc([N+](C)(C)C)c1.[Br-] [NEOSTIGMINE BROMIDE]	Not Active
C[S+](C)[O-] [DIMETHYL SULFOXIDE]	Not Active
CN(C)C(=N)NC(=N)N [METFORMIN]	Not Active
CO/N=C(\C(=O)N[C@@H]1C(=O)N2C(C(=O)O)=C(COC(C)=O)CS[C@H]12)c1csc(N)n1 [CEFOTAXIME]	Not Active

These data points were gathered from ChEMBL document CHEMBL1909046.
